Values from paper PMC9482650

Molecular target: T1, SNTA1, Q13424
T1 sequence (Q13424 82-180, limits assumed, looked up): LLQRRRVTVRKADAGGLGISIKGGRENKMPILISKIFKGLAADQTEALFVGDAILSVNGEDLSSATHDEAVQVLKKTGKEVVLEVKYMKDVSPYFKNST
Assay: holdup assay
Set-up: key: below the threshold = too weak to quantify, mostly under pKd 3.1 to 4
Details: plain residues with an end cap or a label only (N-terminal biotin on a linker: ttds)
Where pKd equals or exceeds 4, the correct label is Criterion met; where it does not, the label is Criterion not met.

Example results:
binder: SSLQSLETSV [ATP2B4, P23634]
category: Criterion met
--
binder: KKYVDAETSL [SLC4A7, Q9Y6M7]
category: Criterion met
--
binder: RLPKIKETTV [FRMPD4, Q14CM0]
category: Criterion met
--
binder: SGSRPSATVV [HPV73-E6, Q82005]
category: Criterion not met
--
binder: VDFPPKESSL [ACVR2A, P27037]
category: Criterion met

# input for lookup
Exam item: Test whether the binder EVVHTPETSV [SLC16A3, O15427] records pKd of 4 or higher.
Marked response: Criterion met
